Test: qHTS of pediatric cancer cell lines to identify multiple opportunities for drug repurposing: Primary screen for DAOY cells (AID 1347090); further: nearly all actives have a fitted effect of over 55% in size; further: potency means the concentration at half of the fitted maximal effect
Conditions: DAOY medulloblastoma viability, CellTiter-Glo luminescence, 48 h; series mostly up to 46 µM
Experimental: Drug repurposing or repositioning has been offered as a strategy for drug development in oncology programs. […] [1] Shen, M et al. Quantitative high-throughput phenotypic screening of pediatric cancer cell lines identifies multiple opportunities for drug repurposing. […] Cells were assayed in growth media at a density of 500-1,000 cells/well. […] After a 15 min incubation at room temperature, samples were analyzed for luminescence intensity using a ViewLux High-throughput CCD imager equipped with clear filters.
Records with an inconclusive call do not appear. Active and inactive are the calls of the source. The call rests on the fitted dose curve; in most records, active means well fitted cell-killing curve with a large enough effect; inconclusive means small, poorly fitted or top-dose-only effect; inactive means flat fitted curve, though single readings scatter.
RECORDED ENDPOINT: Potency

[[record]]
compound = "COc1cc(NC(=O)c2ccc(-c3ccc(Cl)cc3)o2)cc(OC)c1"
recorded_endpoint = "Potency"
observed_measurement = "2.96 µM (active)"

[[record]]
compound = "COc1cccc2c1CCCC2CCCN1CCN(C2CCCCC2)CC1 (stereo unspecified)"
recorded_endpoint = "Potency"
observed_measurement = "inactive"

[[record]]
compound = "O=C(O)c1ccccc1C(=O)Nc1ccc(-c2ccccc2)cc1"
recorded_endpoint = "Potency"
observed_measurement = "inactive"

[[record]]
compound = "N[C@@]1(C(=O)O)CS(=O)(=O)[C@H]2[C@H](C(=O)O)[C@H]21"
recorded_endpoint = "Potency"
observed_measurement = "inactive"

[[record]]
compound = "COc1ncc(-c2ccc3nccc(-c4ccnnc4)c3c2)cc1NS(=O)(=O)c1ccc(F)cc1F"
recorded_endpoint = "Potency"
observed_measurement = "4.69 µM (active)"

[[record]]
compound = "CON=C(C(=O)N[C@@H]1C(=O)N2C(C(=O)OCOC(=O)C(C)(C)C)=C(C=Cc3scnc3C)CS[C@H]12)c1csc(N)n1"
recorded_endpoint = "Potency"
observed_measurement = "inactive"

[[record]]
compound = "C[N+]1(C)[C@@H]2CC(OC(=O)[C@H](CO)c3ccccc3)C[C@H]1[C@H]1O[C@@H]12 (stereo partly specified)"
recorded_endpoint = "Potency"
observed_measurement = "inactive"

[[record]]
compound = "COC1CCC(N(C(=O)C2CCC(C)CC2)c2cc(C3=CCCCC3)sc2C(=O)O)CC1 (stereo unspecified)"
recorded_endpoint = "Potency"
observed_measurement = "inactive"

[[record]]
compound = "CO[C@H]1C[C@@H]2CC[C@@H](C)[C@@](O)(O2)C(=O)C(=O)N2CCCC[C@@H]2C(=O)O[C@H]([C@@H](C)C[C@@H]2CC[C@H](O)[C@H](OC)C2)CC(=O)[C@H](C)C=C(C)[C@@H](O)[C@@H](OC)C(=O)[C@H](C)C[C@H](C)C=CC=CC=C1C"
recorded_endpoint = "Potency"
observed_measurement = "inactive"

[[record]]
compound = "O=C(O)c1ccc(-c2c[nH]c3ncc(-c4ccccc4)cc23)cc1C1CCCC1"
recorded_endpoint = "Potency"
observed_measurement = "inactive"

[[record]]
compound = "O=C1NCC2(CCN(CCc3ccccc3)CC2)O1"
recorded_endpoint = "Potency"
observed_measurement = "inactive"

[[record]]
compound = "CC(C)(C)OC(=O)N[C@H]1CCCCCC=C[C@@H]2C[C@@]2(C(=O)NS(=O)(=O)C2CC2)NC(=O)[C@@H]2C[C@@H](OC(=O)N3Cc4cccc(F)c4C3)CN2C1=O"
recorded_endpoint = "Potency"
observed_measurement = "inactive"

[[record]]
compound = "NC[C@@H]1O[C@@H](O[C@H]2[C@@H](O)[C@H](O[C@@H]3[C@@H](O)[C@@H](N)C[C@H](N)[C@H]3O[C@H]3O[C@H](CN)[C@@H](O)[C@@H](O)[C@H]3N)O[C@H]2CO)[C@H](N)[C@@H](O)[C@@H]1O"
recorded_endpoint = "Potency"
observed_measurement = "inactive"

[[record]]
compound = "CCc1ccc(OCc2ccccc2C(=O)Nc2ccc3nc(C)cc(N)c3c2)cc1"
recorded_endpoint = "Potency"
observed_measurement = "11.8 µM (active)"

[[record]]
compound = "COc1cc2ncnc(Nc3ccc(F)c(Cl)c3)c2cc1OCCCN1CCOCC1"
recorded_endpoint = "Potency"
observed_measurement = "4.29 µM (active)"

[[record]]
compound = "CC1(C)CCC[C@@]2(C)[C@@H]1CC[C@@]1(C)OC(=O)C[C@H]21"
recorded_endpoint = "Potency"
observed_measurement = "inactive"

